- TESTED_TARGET: Sko1 (UniProt Q02100)
- Sequence: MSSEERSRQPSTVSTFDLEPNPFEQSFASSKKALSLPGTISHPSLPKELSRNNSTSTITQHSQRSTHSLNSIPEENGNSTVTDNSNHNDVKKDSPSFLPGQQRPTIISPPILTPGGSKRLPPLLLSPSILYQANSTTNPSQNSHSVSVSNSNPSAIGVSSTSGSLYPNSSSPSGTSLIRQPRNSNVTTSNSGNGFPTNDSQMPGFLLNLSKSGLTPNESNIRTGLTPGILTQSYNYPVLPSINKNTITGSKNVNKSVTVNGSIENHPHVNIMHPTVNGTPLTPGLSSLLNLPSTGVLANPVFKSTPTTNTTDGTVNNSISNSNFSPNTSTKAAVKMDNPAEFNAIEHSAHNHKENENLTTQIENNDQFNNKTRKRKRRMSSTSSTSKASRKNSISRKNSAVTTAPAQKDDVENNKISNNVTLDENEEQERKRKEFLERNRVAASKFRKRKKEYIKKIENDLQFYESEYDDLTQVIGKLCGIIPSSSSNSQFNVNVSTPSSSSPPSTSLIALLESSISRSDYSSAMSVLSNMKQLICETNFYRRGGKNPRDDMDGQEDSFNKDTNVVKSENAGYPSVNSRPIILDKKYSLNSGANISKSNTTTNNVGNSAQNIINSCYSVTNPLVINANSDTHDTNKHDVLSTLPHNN
- ASSAY_PROCEDURE: PBM E-score (8-mer binding enrichment) (E-score (-0.5 to 0.5)); higher = stronger / more preferred TF binding
- TEST_CONDITIONS: protein concentration: 200 nM; construct: GST-full length
Over roughly 33,000 sequences, “E-score (-0.5 to 0.5)” has its median near -0.032; the highest 2% begin near 0.36. The full list was thinned out, with the highest values kept by preference.
What PBM E-score was measured for each of the following?

Study these solved cases before continuing.
[[record]]
polymer_sequence = "CGTACGTC"
result = 0.45

[[record]]
polymer_sequence = "CGTACGCC"
result = 0.218

[[record]]
polymer_sequence = "TACGTTGA"
result = 0.38

[[record]]
polymer_sequence = "GACGTTGA"
result = 0.269

[[record]]
polymer_sequence = "ACCGTCCG"
result = -0.304


List the reported PBM E-score of each sequence below.
1. CGTACGAA
2. CGTACGCA
3. AACGTTAA
4. ATTACGAG
5. AGTACGCG
6. ATTACGAC

[0.269, 0.332, 0.243, 0.36, 0.236, 0.396]
